target: Myc proto-oncogene protein (Homo sapiens); assay: ATG_Myc_CIS: Attagene CIS-FACTORIAL HepG2 Assay for human Myelocytomatosis (Myc) Proto-Oncogene Transcription Factor (AID 2282990); details: HepG2, Attagene cis-reporter transcription factor activity; actives raise or lower the signal
Calls of active or inactive are those of the source. Rule for the calls: active = hit-call score of the fitted dose curve at least 0.9, where 1 is the maximum; inactive = score below 0.9.
Pick one: active, inactive

C[Si](Cl)(Cl)CCC(F)(F)C(F)(F)C(F)(F)C(F)(F)C(F)(F)C(F)(F)F    inactive
CO[Si](CCCOCC1CO1)(OC)OC (centres undefined)    inactive
COc1ccccc1C=O    inactive
CC(C)Nc1ccc(NC(C)C)c2c1C(=O)c1ccccc1C2=O    inactive
O=S(=O)(O)CCC(F)(F)C(F)(F)C(F)(F)C(F)(F)F    inactive
CC(=O)c1ccccc1N    inactive
CSc1ccc(Cl)cc1    inactive
CCc1ccc(C)nc1    inactive

Task item: # lookup: test call for C=C(C)C(=O)OCC(F)(F)C(F)(F)C(F)(F)C(F)F
Reply: inactive

Task item: # lookup: test call for OC(O)C(F)(F)C(F)(F)F
Reply: inactive

Task item: # lookup: test call for CC(=O)CCC(C)C
Reply: inactive

Task item: # lookup: test call for CCc1cccc(C)c1N(C(=O)C(=O)O)C(C)COC (centres undefined)
Reply: inactive

Task item: # lookup: test call for CCN(CCO)S(=O)(=O)C(F)(F)C(F)(F)C(F)(F)C(F)(F)C(F)(F)C(F)(F)C(F)(F)C(F)(F)F
Reply: inactive

Task item: # lookup: test call for Cc1cccc(C)n1
Reply: inactive

###

assay: BSK_CASM3C_SRB: Viability Assessment in the BioMAP Diversity Plus: CASM3C Assay (AID 2283050); conditions: primary human coronary artery smooth muscle cells;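 note: total protein by SRB staining as cytotoxicity measure in parallel cultures; cells exposed to compound for 24 h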
Calls of active or inactive are those of the source. The calls were made as follows: active = hit-call score of the fitted dose curve at least 0.9, where 1 is the maximum; inactive = score below 0.9.
Pick one: active, inactive

OCC(F)(F)C(F)(F)C(F)(F)CO    inactive

Task item: # lookup: test call for Cc1cc(C)c(O)c(C(C)(C)C)c1
Reply: active

Task item: # lookup: test call for OCC(O)CC(F)(F)C(F)(F)C(F)(F)C(F)(F)C(F)(F)C(F)(F)C(F)(F)C(F)(F)F (stereo not drawn)
Reply: inactive

Task item: # lookup: test call for O=C(O)CCC(F)(F)C(F)(F)C(F)(F)C(F)(F)C(F)(F)C(F)(F)C(F)(F)F
Reply: inactive

Task item: # lookup: test call for NC(=O)C(F)(F)C(F)(F)C(F)(F)F
Reply: inactive

###

Read-out: Interleukin 6 (IL6), IL6 (gene 3569)
Assay: BSK_BT_xIL6: BioMAP Diversity Plus: BT Assay for Interleukin 6 (IL6) Biomarker Activity (AID 2284228)
Settings: primary human B cells with PBMC
Procedure: BSK_BT is a cell-based, multiplexed-readout assay that uses B cell and peripheral blood mononuclear cells, a human vascular primary cell co-culture, with measurements taken at 24 hours after chemical dosing in a microplate: 96-well plate.BSK_BT_xIL6 is an assay component measured in the BSK_BT assay. […] Using a type of cytokine quantitation reporter, gain or loss-of-signal activity can be used to understand protein changes. […]
Calls of active or inactive are those of the source. How the source made its calls: active means hit-call score of the fitted dose curve at least 0.9, where 1 is the maximum; inactive means score below 0.9.
Pick one: True (active), False (inactive)

CCN(CC)c1ccc(N=Nc2ccccc2)cc1    True
CC(C)(C)c1cc(CCC(=O)NCCCCCCNC(=O)CCc2cc(C(C)(C)C)c(O)c(C(C)(C)C)c2)cc(C(C)(C)C)c1O    False
NC(=O)C(F)(F)C(F)(F)C(F)(F)F    False

Task item: # lookup: test call for NC(=O)C(F)(F)C(F)(F)C(F)(F)C(F)F
Reply: False

Task item: # lookup: test call for CNS(=O)(=O)C(F)(F)C(F)(F)C(F)(F)C(F)(F)C(F)(F)C(F)(F)C(F)(F)C(F)(F)F
Reply: False

Taken from PubChem BioAssay (EPA / NIEHS).
